# test_system: GluA2Qflip AMPA receptor (Rattus norvegicus)
# condition_details: KI for the open-channel conformation, 3 mM glutamate; from A/A(I) vs inhibitor concentration
measurement_name: Ki (µM)
Write the value in µM as a bare number.

Q: Any idea what its Ki is? The compound is CNC(=O)N1N=C(c2ccc(N)cc2)c2cc3c(cc2CC1C)OCO3 (stereo not shown) [BDZ-f, reference compound]
Result: 5.4

* * *

# test_system: GluA2Qflip AMPA receptor (Rattus norvegicus, UniProt P19491)
# Sequence (P19491 22-883 isoform P19491-2 limits assumed): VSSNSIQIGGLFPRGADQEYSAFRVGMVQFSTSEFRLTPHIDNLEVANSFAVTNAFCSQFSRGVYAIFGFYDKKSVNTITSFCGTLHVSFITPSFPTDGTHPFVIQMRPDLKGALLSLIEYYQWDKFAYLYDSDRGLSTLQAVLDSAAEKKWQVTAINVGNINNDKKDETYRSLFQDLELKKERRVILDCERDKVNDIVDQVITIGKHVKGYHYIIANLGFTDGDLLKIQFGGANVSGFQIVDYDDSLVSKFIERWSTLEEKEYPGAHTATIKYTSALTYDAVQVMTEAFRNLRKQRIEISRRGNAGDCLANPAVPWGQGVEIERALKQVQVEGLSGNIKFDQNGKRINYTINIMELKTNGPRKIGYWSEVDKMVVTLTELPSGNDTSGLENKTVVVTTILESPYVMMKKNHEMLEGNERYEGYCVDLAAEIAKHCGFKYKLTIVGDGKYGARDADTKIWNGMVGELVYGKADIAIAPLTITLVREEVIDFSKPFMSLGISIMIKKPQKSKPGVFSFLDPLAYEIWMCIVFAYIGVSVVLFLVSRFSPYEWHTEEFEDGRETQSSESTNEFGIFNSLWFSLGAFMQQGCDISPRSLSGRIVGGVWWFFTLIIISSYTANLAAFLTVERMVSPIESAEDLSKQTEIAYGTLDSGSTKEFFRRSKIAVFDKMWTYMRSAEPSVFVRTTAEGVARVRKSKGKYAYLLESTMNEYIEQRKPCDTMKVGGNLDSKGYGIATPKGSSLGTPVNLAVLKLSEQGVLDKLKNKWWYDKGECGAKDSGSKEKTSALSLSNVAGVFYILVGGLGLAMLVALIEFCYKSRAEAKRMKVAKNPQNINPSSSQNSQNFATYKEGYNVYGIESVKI
# condition_details: KI for the closed-channel conformation, 100 μM glutamate; from A/A(I) vs inhibitor concentration; -60 mV, 22 °C
measurement_name: Ki (µM)
Write the value in µM as a bare number.

Q: Any idea what its Ki is? The compound is CNC(=O)N1N=C(c2ccc(N)cc2)c2cc3c(cc2CC1C)OCO3 (stereo not shown) [BDZ-f, reference compound]
Result: 3.8

Reference source: patent US9200286B2
